Exercise: for every item that follows, state its recorded TGI.
- Test system: T-47D breast
- Assay explanation: NCI tumour cell line growth inhibition, 48 h
Numeric answer only, unit µM assumed.

Short answer for N#Cc1c(Br)n(C2OC(CO)C(O)C2O)c2ncnc(N)c12 (stereo not given) : TGI was 21

Looking up CCOC(=O)C(CC(C)C)NC(=O)CSc1nnc(COc2ccc(Cl)cc2)n1-c1ccccc1 (stereo not given) , I see its TGI listed as 45.3

Notebook: COc1cccc(-c2ccc3c(c2)C2CCN(Cc4ccccc4)C3C2)c1 (stereo not given) , TGI read as 38.5

Noted for O=[N+]([O-])c1ccc(Oc2nc(Nc3ccc(O[C@H]4CO[C@H]5[C@@H]4OC[C@@H]5O)c(Cl)c3)ncc2F)c(Cl)c1 : its TGI reads 8.06

The recorded TGI for FC(F)(F)c1ccc(-c2cnc(-n3cc(COCCN4CCCCC4)nn3)nc2NC2CCCCCC2)cc1 is 9.21

The molecule identified as O=[N+]([O-])c1ccc(C2CC(c3ccccc3Cl)=Nc3ccccc3S2=O)cc1 (stereo not given) registered its TGI at 44.2

What the record says about Cc1ccc(C(NC(=O)c2ccccc2)c2ccc3cccnc3c2O)cc1 (stereo not given) : TGI is 27.7

The molecule O=C1Nc2ccccc2Cn2c1cc1oc(-c3ccccc3)cc12 showed TGI equal to 92.6

* * *

- Test system: SF-295 CNS
- Assay explanation: NCI tumour cell line growth inhibition, 48 h; in the data active means GI50 below about 0.43 µM; inactive means the rest
The reply should be one of these categories: active, inactive

State the result this test recorded for COc1cccc2c1-c1c(c3ccc([N+](=O)[O-])cc3c(=O)n1CCCN)C2=O . inactive

Per the assay record, what outcome was assigned to CC(C)N1CCN(Cc2ccc3c(NNC(=O)c4ccccc4)nc4cc(F)ccc4n23)CC1 ? active

So what was the verdict on Cc1ccc(/C=C2\CN(C(=O)C(Cl)Cl)C/C(=C\c3ccc(C)cc3)C2=O)cc1 in this test? active

Assay result, entry COc1ccc2c(c1)CC[C@@H]1[C@@H]2CC[C@]2(C)[C@@H](NC(=O)/C=C/c3ccc(O)c(O)c3)CC[C@@H]12 — outcome? inactive

Name the outcome recorded for COc1cc2c(cc1OC)C(Sc1ccc(SC)cc1)c1c(nc(N)c(C#N)c1N)O2 (stereo not given) in the assay. inactive

* * *

- Tested on: OVCAR-3 ovarian
- Assay explanation: NCI tumour cell line growth inhibition, 48 h
Measurement type: TGI (µM)
Kindly provide the numeric value in µM only, without the unit symbol.

The recorded TGI for COc1ccc(S(=O)(=O)NC2=NCCN2C(=S)SN2CCn3c2nsc3=S)cc1 is 37.4

Value of TGI reported for the compound S=C(Nc1ccc(N=Nc2ccccc2)cc1)SCc1ccccc1 is 29.4

So, O=C(CN1CCN(c2cc3c(cc2F)c(=O)c(C(=O)O)cn3C2CC2)CC1)Nc1nc(-c2ccc(Cl)cc2)cs1 ? Its TGI was 17.3

Memo: Cc1ccc(-c2c3c(nn2-c2ccc(S(N)(=O)=O)cc2)-c2ccccc2C3)cc1 , reported TGI: 30

Record Oc1ccc(O)c(-c2cc(-c3ccc(Cl)cc3)nn2-c2ccccc2)c1 , field TGI: 30.7

* * *

Task for the reader: assign each of the following compounds its reported TGI.
- Test system: HS 578T breast
- Assay explanation: NCI tumour cell line growth inhibition, 48 h
Unit µM implied. Number only.

Item: N#Cc1c(Br)n(C2OC(CO)C(O)C2O)c2ncnc(N)c12 (stereo unspecified) | TGI: 8.54

In plain terms, CC1=CC(=O)C(C(C)C)=CC1=Nc1cc(Br)c(O)c(Br)c1 has a documented TGI of 21.1

For this compound ( CC(C)N1CCN(Cc2ccc3c(NNC(=O)c4ccccc4)nc4cc(F)ccc4n23)CC1 ), measured TGI is 26.9

* * *

I'd appreciate it if you could supply TGI values for the items below.
- Test system: SF-268 CNS
- Assay explanation: NCI tumour cell line growth inhibition, 48 h

The recorded TGI for entry CCOC(=O)C[n+]1cccc(C2(c3cc4ccccc4[nH]3)OCCO2)c1 equals > 100 µM

Entry under test: O=C(CCCCCC(=O)N1CC(CCl)c2ccc([N+](=O)[O-])cc21)N1CC(CCl)c2ccc([N+](=O)[O-])cc21 (stereo not given) . Its TGI was > 100 µM

Sure, the documented TGI for COc1cc(OC)c2nccc(NCCCN(C)C)c2c1[N+](=O)[O-] is > 100 µM

The recorded TGI for entry S=C(Nc1ccc(N=Nc2ccccc2)cc1)SCc1ccccc1 equals 36.6 µM

Record O=C(NC1CCCCC1)c1cc2ccccc2cc1O , field TGI: > 100 µM

The reported TGI of the compound COP(=O)(OC)C(NC(=O)C(F)(F)F)(c1ccccc1)C(F)(F)F (stereo not given) was > 100 µM

response.value for CC(=O)c1c(CN(C)c2ccccc2)n([O-])c2ccccc2[n+]1=O (field: TGI) = 79.9 µM

Field TGI (entry Cc1ccc(-c2c3c(nn2-c2ccc(S(N)(=O)=O)cc2)-c2ccccc2C3)cc1 ) reads 44.7 µM

Consider C#CC[N+](C)(CC#C)CC#C . Its measured TGI is > 100 µM

Reported TGI ( CCCC(C)n1c(C)nc2c1C(=O)c1ccccc1C2=O (stereo not given) ) = > 100 µM

Value of TGI reported for the compound Cc1cn(C2CC(N)C(C(=O)NCC(=O)O)O2)c(=O)[nH]c1=O (stereo not given) is > 100 µM

The recorded TGI for Cc1ccc(-n2cc(-c3ccc(Cl)cc3)c3c(N/N=C4\SCC(=O)N4C)ncnc32)cc1 is > 100 µM

COC(=O)C1=C(OC(=O)/C=C/c2ccccc2)C(C(=O)OC)[C@@]2(O)[C@@H](C(=O)OC)[C@H](C)C[C@@H]1[C@@H]2C(=O)OC (stereo not given in full) yielded TGI of 92 µM

Reported TGI for CC(C)N1CCN(Cc2ccc3c(NNC(=O)c4ccccc4)nc4cc(F)ccc4n23)CC1 was 12.7 µM

# compound COc1cc2cc(C(=O)N3CC(CCl)c4c3cc(NC(=O)OCc3ccc([N+](=O)[O-])cc3)c3ccccc43)[nH]c2c(OC)c1OC (stereo not given) ; its TGI = > 81.2 µM

Recorded TGI (compound Cc1ccc(NC(=O)C2C(=O)N(c3ccc(C)c(C)c3)C(=O)/C2=N\NC(N)=O)cc1C (stereo not given) ): > 100 µM

For this compound ( CCCCC(C)C(OC(=O)CC(CC(=O)O)C(=O)O)C(CC(C)CC(O)CCCCC(O)CC(O)C(C)N)OC(=O)CC(CC(=O)O)C(=O)O (stereo not given) ), measured TGI is > 100 µM

response.value for Cc1ccc2c(=O)c(C(=O)Nn3c(C)csc3=S)c[nH]c2n1 (field: TGI) = > 100 µM

Reported TGI ( COc1cc(CNc2cnc3cc(N)ccc3n2)cc(OC)c1OC ) = > 100 µM

Kindly note the recorded TGI for O=[N+]([O-])c1ccc(N/N=C/CC(O)(C(F)(F)F)C(F)(F)F)c([N+](=O)[O-])c1 , which is > 10 µM

* * *

- Test system: HCC-2998 colon
- Assay explanation: NCI tumour cell line growth inhibition, 48 h
Measurement type: TGI (µM)
Just the number in µM, nothing appended.

Record CCCCCCCCCCCCCCCCNCCCN(C)CCCN , field TGI: 33.4

Please fill in: TGI reported for COc1ccc(C(c2ccc(OCCN(C)C)cc2)c2cc3ccccc3c3ccccc23)cc1 (centres undefined) = 3.34

Form field TGI, entry Cn1nc(-c2ccc(Cl)cc2)nc2c(=O)n(C)c(=O)nc1-2 : 3.83

Looking up Cc1cc(S(=O)(=O)/N=C/N(C)C)c(SC(=O)c2ccc(Cl)cc2)cc1Cl , I found its TGI recorded as 38.2

* * *

- System: UACC-257 melanoma
- Assay explanation: NCI tumour cell line growth inhibition, 48 h; in the data active = GI50 below about 0.43 µM; inactive = the rest
Classes to choose from: active, inactive

// outcome(item) with item = Clc1ccc(-c2csc(Nc3cccc(-c4csc(-c5ccccc5)n4)c3)n2)cc1 inactive

For this compound, state the assay outcome: CCN(Cc1ccc(F)cc1)c1ccc(CO)c(C)c1 inactive

So what was the verdict on CCC(c1ccc(OC)cc1)C(CC)c1ccc(O)c(CN2CCN(C)CC2)c1 (configuration not stated) in this test? inactive

Any idea what this test logged for COc1cccc(-c2ccc3c(c2)C2CCN(Cc4ccccc4)C3C2)c1 (configuration not stated) ? inactive

Could you check what this test reported for CC(C)N1CCN(Cc2ccc3c(NNC(=O)c4ccccc4)nc4cc(F)ccc4n23)CC1 ? inactive

I would be grateful if you could indicate the recorded call for Cc1ccc(/C=C2\CN(C(=O)C(Cl)Cl)C/C(=C\c3ccc(C)cc3)C2=O)cc1 . active

Hi, do you know how COc1ccc2c(C3(c4cn(C)c5cc(OC)ccc45)C(=O)Nc4ccc(Cl)cc43)cn(C)c2c1 came out in this test? inactive

State the result this test recorded for Cc1cc(S(=O)(=O)/N=C/N(C)C)c(SC(=O)c2ccc(Cl)cc2)cc1Cl . inactive

Answer briefly: the call reported for Cc1ccc(-c2c3c(nn2-c2ccc(S(N)(=O)=O)cc2)-c2ccccc2C3)cc1 in this assay. inactive

For COc1cccc(-c2nn(-c3ccccc3)cc2-c2ccnc(NCCNC(=O)Nc3cccc(C(F)(F)F)c3)c2)c1 , which call appears in the assay record? inactive

Which result was noted for this compound in the test: Nc1cc(O)ccc1N=Nc1ccc(-c2nc3ccccc3[nH]2)cc1 inactive

Any idea what this test logged for CC(=O)c1c(CN(C)c2ccccc2)n([O-])c2ccccc2[n+]1=O ? inactive

Dear colleague, could you share the recorded outcome for Cc1cc(Nc2nc(-c3cccnc3)nc3ccccc23)n[nH]1 when you have a moment? inactive

Write down the call the test reported for this compound. Item: O=C(CN1CCN(c2cc3c(cc2F)c(=O)c(C(=O)O)cn3C2CC2)CC1)Nc1nc(-c2ccc(Cl)cc2)cs1 inactive

GET /call?item= Cn1nc(-c2ccc(Cl)cc2)nc2c(=O)n(C)c(=O)nc1-2 returns the recorded outcome of this test. inactive

How was COC1=C(C)C(=O)c2c(c(CCCl)c3n2CCC3O)C1=O (configuration not stated) classified in this test? inactive

How was CC(=O)N1N=C(c2ccc(Nc3ccnc4cc(Cl)ccc34)cc2)CC1c1ccc(Cl)cc1 (configuration not stated) classified in this test? inactive
